Field: T/C. Provide a value for each of the molecules that follow.
# Tested on: L1210 leukemia ip in BDF1 mice, survival T/C
# METHOD_NOTES: NCI In Vivo Anticancer Drug Screen. Data for tumor model L1210 Leukemia (intraperitoneal) in B6D2F1 (BDF1) mice
# RECORDED_CONDITIONS: endpoint: mean survival time; dose: 100.0 mg/kg/injection; schedule: Q01DX001 (ip); vehicle: saline; higher = longer survival
Toxic doses and inconclusive results are not listed.

[Q] Could you tell me which T/C is on file for CC(=O)c1cccnc1 ?
[A] 91 % of control

[Q] Could you tell me which T/C is on file for CC1C(=O)C2CCCCC2C1=O (centres undefined) ?
[A] 96 % of control

[Q] Could you tell me which T/C is on file for O=CNc1c(Cl)c(Cl)c2c(c1Cl)Cc1cc(Cl)ccc1-2 ?
[A] 91 % of control

[Q] Could you tell me which T/C is on file for Cc1ccc(NC(=O)Nc2ccc(CNC(=O)COc3ccc(Cl)cc3C(=O)O)cc2)cc1S(=O)(=O)F ?
[A] 100 % of control

[Q] Could you tell me which T/C is on file for Cc1ccc(S(=O)(=O)NNC(=O)c2ccccc2NCCO)cc1 ?
[A] 101 % of control

[Q] Could you tell me which T/C is on file for NC(=O)NCc1ccccc1 ?
[A] 105 % of control

[Q] Could you tell me which T/C is on file for Cc1coc(NS(=O)(=O)c2ccc(N=Nc3c(N)[nH]c(=S)[nH]c3=O)cc2)c1C ?
[A] 113 % of control

[Q] Could you tell me which T/C is on file for OCC(O)C(O)C(O)C1SCCS1 (centres undefined) ?
[A] 103 % of control

[Q] Could you tell me which T/C is on file for C=CCOc1cc[n+]([O-])cc1 ?
[A] 100 % of control

* * *

Field: T/C. Provide a value for each of the molecules that follow.
# System: L1210 leukemia ip in BDF1 mice, survival T/C
# METHOD_NOTES: NCI In Vivo Anticancer Drug Screen. Data for tumor model L1210 Leukemia (intraperitoneal) in B6D2F1 (BDF1) mice
# RECORDED_CONDITIONS: endpoint: mean survival time; dose: 12.5 mg/kg/injection; schedule: Q04DX003 (ip); vehicle: saline with Tween-80; higher = longer survival
Inconclusive results and toxic doses are left out.

[Q] Could you tell me which T/C is on file for N#CC1(C#N)C2C=CC(C3C(Cl)C=CC32)C1(C#N)C#N (stereo not drawn) ?
[A] 96 % of control

[Q] Could you tell me which T/C is on file for c1ccc(C[n+]2ccc3ccccc3c2)cc1 ?
[A] 98 % of control

[Q] Could you tell me which T/C is on file for COc1cc(Cc2c3cc4c(cc3cc[n+]2C)OCO4)c(Oc2cc(Cc3c4cc5c(cc4cc[n+]3C)OCO5)ccc2OC)cc1OC ?
[A] 95 % of control

* * *

Field: T/C. Provide a value for each of the compounds that follow.
# Test system: L1210 leukemia ip in BDF1 mice, survival T/C
# METHOD_NOTES: NCI In Vivo Anticancer Drug Screen. Data for tumor model L1210 Leukemia (intraperitoneal) in B6D2F1 (BDF1) mice
# RECORDED_CONDITIONS: endpoint: mean survival time; dose: 200.0 mg/kg/injection; schedule: Q01DX001 (ip); vehicle: carboxymethylcellulose (CMC); higher = longer survival
Toxic doses and inconclusive results are not listed.

[Q] Could you tell me which T/C is on file for NC(=O)NC1c2ccccc2-c2ccccc21 ?
[A] 93 % of control

[Q] Could you tell me which T/C is on file for S=C(N/N=C\c1ccc2c(c1)OCO2)Nc1ccc2cn[nH]c2c1 ?
[A] 91 % of control

[Q] Could you tell me which T/C is on file for CCCCCCCCCCCCCCCCS(=O)(=O)N/N=C/c1ccc(Cl)cc1Cl ?
[A] 101 % of control

* * *

# System: L1210 leukemia ip in BDF1 mice, survival T/C
# METHOD_NOTES: NCI In Vivo Anticancer Drug Screen. Data for tumor model L1210 Leukemia (intraperitoneal) in B6D2F1 (BDF1) mice
# RECORDED_CONDITIONS: endpoint: mean survival time; dose: 150.0 mg/kg/injection; schedule: Q01DX009 (ip); vehicle: Klucel (hydroxypropylcellulose) (HPC); higher = longer survival
Toxic doses and inconclusive results are not listed.
Field: T/C. Provide a value for each of the compounds that follow.

[Q] Could you tell me which T/C is on file for CC1=CC(C)(C)SC(=S)N1 ?
[A] 104 % of control

[Q] Could you tell me which T/C is on file for CCCOC(=O)C(C)(O)C(Cl)c1ccccc1 (stereo not drawn) ?
[A] 104 % of control

[Q] Could you tell me which T/C is on file for Cc1cc(O)c2c(c1)OC(C)(C)C1=C2CC(C)CC1 (stereo not drawn) ?
[A] 92 % of control

* * *

Field: T/C. Provide a value for each of the compounds that follow.
# System: L1210 leukemia ip in BDF1 mice, survival T/C
# METHOD_NOTES: NCI In Vivo Anticancer Drug Screen. Data for tumor model L1210 Leukemia (intraperitoneal) in B6D2F1 (BDF1) mice
# RECORDED_CONDITIONS: endpoint: mean survival time; dose: 400.0 mg/kg/injection; schedule: Q04DX003 (ip); vehicle: saline with Tween-80; higher = longer survival
Inconclusive results and toxic doses are left out.

[Q] Could you tell me which T/C is on file for CS(=O)(=O)OCC(OS(C)(=O)=O)C(COS(C)(=O)=O)OS(C)(=O)=O (stereo unspecified) ?
[A] 96 % of control

[Q] Could you tell me which T/C is on file for O=C1/C(=C/c2ccccc2)Cc2ccccc21 ?
[A] 109 % of control

[Q] Could you tell me which T/C is on file for CC/C=C(/C)CCC ?
[A] 98 % of control

[Q] Could you tell me which T/C is on file for Cc1ccc(S(=O)(=O)N(C)C)cc1N ?
[A] 102 % of control

[Q] Could you tell me which T/C is on file for N#CSC(C(=O)c1ccccc1)c1ccccc1 (stereo unspecified) ?
[A] 92 % of control

[Q] Could you tell me which T/C is on file for CCOC(=O)/C=C1/Nc2cc(Cl)c(Cl)cc2NC1=O ?
[A] 89 % of control

[Q] Could you tell me which T/C is on file for Cc1cc(Cl)ccc1OC(=O)Nc1ccccc1Cl ?
[A] 96 % of control

[Q] Could you tell me which T/C is on file for C/C=C/CCC(C)=O ?
[A] 108 % of control

[Q] Could you tell me which T/C is on file for Cc1ccc2cc3c(ccc4ccccc43)c3c2c1CC3 ?
[A] 120 % of control

[Q] Could you tell me which T/C is on file for O=C(NCCc1ccccc1)c1ccccc1 ?
[A] 100 % of control

[Q] Could you tell me which T/C is on file for Cc1ccc(C(C)(C)Cl)cc1O ?
[A] 102 % of control

* * *

# Tested on: L1210 leukemia ip in BDF1 mice, survival T/C
# METHOD_NOTES: NCI In Vivo Anticancer Drug Screen. Data for tumor model L1210 Leukemia (intraperitoneal) in B6D2F1 (BDF1) mice
# RECORDED_CONDITIONS: endpoint: mean survival time; dose: 100.0 mg/kg/injection; schedule: Q04DX003 (ip); vehicle: saline with Tween-80; higher = longer survival
# Method: The antitumor activity of compounds was measured in mice bearing transplantable tumors. Survival or tumor size were measured and the results are expressed as the measurement made in the treated group (T) divided by the measurement made in the vehicle treated control group (C). The tumor model used in this assay is L1210 Leukemia (intraperitoneal) in B6D2F1 (BDF1) mice
Inconclusive results and toxic doses are left out.
Field: T/C. Provide a value for each of the compounds that follow.

[Q] Could you tell me which T/C is on file for CCC(O)(c1ccccc1)c1ccccc1 ?
[A] 103 % of control

[Q] Could you tell me which T/C is on file for O=C(NCCc1ccccc1)c1ccccc1 ?
[A] 112 % of control

[Q] Could you tell me which T/C is on file for CCN(C(=O)c1cccc(C(=O)N(CC)c2ccccc2C)c1)c1ccccc1C ?
[A] 99 % of control

[Q] Could you tell me which T/C is on file for OCCN(CCO)c1cc(O)cc(O)c1 ?
[A] 98 % of control

[Q] Could you tell me which T/C is on file for OC1COC(Cl)C(O)C1O (stereo not drawn) ?
[A] 91 % of control

[Q] Could you tell me which T/C is on file for C=C1C(=O)O[C@@H]2C[C@@H](C)[C@@H]3[C@@H](OC4OC(COC(C)=O)C(O)C(O)C4O)CC(=O)[C@@]3(C)C[C@H]12 (stereo partly drawn) ?
[A] 100 % of control

[Q] Could you tell me which T/C is on file for O=C(COc1ccc(Cl)c(Cl)c1)NCCc1cc[n+](Cc2ccc(S(=O)(=O)F)cc2)cc1 ?
[A] 102 % of control

[Q] Could you tell me which T/C is on file for CCCCCCCCCOc1ccc2ccccc2c1 ?
[A] 102 % of control

[Q] Could you tell me which T/C is on file for CCCCCCOC(=O)Nc1cccc(O)c1 ?
[A] 104 % of control

[Q] Could you tell me which T/C is on file for Cc1ccc(C)c(NC(=O)N(C2CCCCC2)C2CCCCC2)c1 ?
[A] 100 % of control

[Q] Could you tell me which T/C is on file for Cc1ccc(NC(=O)CS)cc1 ?
[A] 100 % of control

[Q] Could you tell me which T/C is on file for C/C=C\C=C\C(=O)OC ?
[A] 99 % of control

[Q] Could you tell me which T/C is on file for COc1cc(/C=N/NC(=O)CCCCCCCCC(=O)N/N=C/c2ccc(O)c(OC)c2)ccc1O ?
[A] 87 % of control

[Q] Could you tell me which T/C is on file for CCOC(=O)N/N=C\c1cc(OC)c(OC)c(OC)c1 ?
[A] 102 % of control

[Q] Could you tell me which T/C is on file for OCC1OCCO1 ?
[A] 110 % of control

[Q] Could you tell me which T/C is on file for COc1c(NS(=O)(=O)c2ccccc2)cc2c3c(cccc13)CC2 ?
[A] 97 % of control

[Q] Could you tell me which T/C is on file for O=C1NC(=O)C(C2CCCCC2)(C2CCCCC2)N1 ?
[A] 107 % of control

[Q] Could you tell me which T/C is on file for CCOc1ccnc(OCC)n1 ?
[A] 106 % of control
